# EC50 listing for each entry below
biological target: human TAS1R2-S212G/TAS1R3-WT (Homo sapiens, UniProt Q7RTX0+Q8TE23, S212G); assay: Calcium mobilisation assay, TAS1R2 variant S212G with TAS1R3-WT
measurementName: EC50 (µM)

molecule: C[C@H](CC[C@@H](O[C@@H]1O[C@H](CO[C@@H]2O[C@H](CO)[C@@H](O)[C@H](O)[C@H]2O)[C@@H](O)[C@H](O)[C@H]1O[C@@H]1O[C@H](CO)[C@@H](O)[C@H](O)[C@H]1O)C(C)(C)O)[C@H]1CC[C@@]2(C)[C@@H]3CC=C4[C@@H](CC[C@H](O[C@@H]5O[C@H](CO[C@@H]6O[C@H](CO)[C@@H](O)[C@H](O)[C@H]6O)[C@@H](O)[C@H](O)[C@H]5O)C4(C)C)[C@]3(C)[C@H](O)C[C@]12C [Mogroside V, mogroside V]
measurementName: EC50
unitsOfMeasure: µM
assayValue: 21.2
--
molecule: CC1=CC(=O)NS(=O)(=O)O1
measurementName: EC50
unitsOfMeasure: µM
assayValue: 438
--
molecule: C=C(C)[C@@H]1CC=C(/C=N/O)CC1
measurementName: EC50
unitsOfMeasure: µM
assayValue: 22.9
--
molecule: OC[C@H]1O[C@H](O[C@]2(CCl)O[C@H](CCl)[C@@H](O)[C@@H]2O)[C@H](O)[C@@H](O)[C@H]1Cl
measurementName: EC50
unitsOfMeasure: µM
assayValue: 96

---

biological target: human TAS1R2-I486V/TAS1R3-WT (Homo sapiens, UniProt Q7RTX0+Q8TE23, I486V); construct: expressed in transfected cells; host or cells: HEK293T-Gα16gust44; test: Calcium mobilisation assay, TAS1R2 variant I486V with TAS1R3-WT; assay type: cell-based; conditions: maximal signal amplitude
# Max ΔF/F0 listing for each entry below

compound: OC[C@H]1O[C@H](O[C@]2(CCl)O[C@H](CCl)[C@@H](O)[C@@H]2O)[C@H](O)[C@@H](O)[C@H]1Cl [Sucralose]
Max ΔF/F0: 0.69
--
compound: C[C@H](CC[C@@H](O[C@@H]1O[C@H](CO[C@@H]2O[C@H](CO)[C@@H](O)[C@H](O)[C@H]2O)[C@@H](O)[C@H](O)[C@H]1O[C@@H]1O[C@H](CO)[C@@H](O)[C@H](O)[C@H]1O)C(C)(C)O)[C@H]1CC[C@@]2(C)[C@@H]3CC=C4[C@@H](CC[C@H](O[C@@H]5O[C@H](CO[C@@H]6O[C@H](CO)[C@@H](O)[C@H](O)[C@H]6O)[C@@H](O)[C@H](O)[C@H]5O)C4(C)C)[C@]3(C)[C@H](O)C[C@]12C [Mogroside V, mogroside V]
Max ΔF/F0: 1.39

---

# Max ΔF/F0 listing for each entry below
Target: human TAS1R2-WT/TAS1R3-R247H (Homo sapiens, UniProt Q7RTX0+Q8TE23, R247H)
Construct: expressed in transfected cells; host or cells: HEK293T stably expressing Gα16gust44
Sequence (Q8TE23 20-839): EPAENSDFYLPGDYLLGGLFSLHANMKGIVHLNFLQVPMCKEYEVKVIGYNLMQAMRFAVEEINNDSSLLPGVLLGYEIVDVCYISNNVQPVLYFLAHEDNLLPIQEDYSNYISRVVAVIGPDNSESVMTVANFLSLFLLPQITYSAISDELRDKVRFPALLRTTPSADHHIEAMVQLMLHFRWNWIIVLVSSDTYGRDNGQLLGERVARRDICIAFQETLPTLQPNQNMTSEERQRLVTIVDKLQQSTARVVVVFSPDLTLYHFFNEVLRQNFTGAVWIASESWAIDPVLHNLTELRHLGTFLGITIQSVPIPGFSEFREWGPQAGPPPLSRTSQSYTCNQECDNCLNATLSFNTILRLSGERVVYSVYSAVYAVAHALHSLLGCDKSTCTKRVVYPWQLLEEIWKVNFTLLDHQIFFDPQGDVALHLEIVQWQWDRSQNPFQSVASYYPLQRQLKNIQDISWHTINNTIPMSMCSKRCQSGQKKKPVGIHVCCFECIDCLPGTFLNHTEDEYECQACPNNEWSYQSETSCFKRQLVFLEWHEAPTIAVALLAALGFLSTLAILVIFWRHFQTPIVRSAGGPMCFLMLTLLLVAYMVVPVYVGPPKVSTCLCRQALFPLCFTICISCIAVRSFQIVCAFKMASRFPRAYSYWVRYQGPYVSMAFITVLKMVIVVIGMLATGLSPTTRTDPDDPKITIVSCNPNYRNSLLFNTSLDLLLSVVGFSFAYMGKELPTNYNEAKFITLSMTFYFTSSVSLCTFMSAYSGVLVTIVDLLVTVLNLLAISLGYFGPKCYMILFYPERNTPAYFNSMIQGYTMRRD
Sequence (Q7RTX0 21-852 R247H): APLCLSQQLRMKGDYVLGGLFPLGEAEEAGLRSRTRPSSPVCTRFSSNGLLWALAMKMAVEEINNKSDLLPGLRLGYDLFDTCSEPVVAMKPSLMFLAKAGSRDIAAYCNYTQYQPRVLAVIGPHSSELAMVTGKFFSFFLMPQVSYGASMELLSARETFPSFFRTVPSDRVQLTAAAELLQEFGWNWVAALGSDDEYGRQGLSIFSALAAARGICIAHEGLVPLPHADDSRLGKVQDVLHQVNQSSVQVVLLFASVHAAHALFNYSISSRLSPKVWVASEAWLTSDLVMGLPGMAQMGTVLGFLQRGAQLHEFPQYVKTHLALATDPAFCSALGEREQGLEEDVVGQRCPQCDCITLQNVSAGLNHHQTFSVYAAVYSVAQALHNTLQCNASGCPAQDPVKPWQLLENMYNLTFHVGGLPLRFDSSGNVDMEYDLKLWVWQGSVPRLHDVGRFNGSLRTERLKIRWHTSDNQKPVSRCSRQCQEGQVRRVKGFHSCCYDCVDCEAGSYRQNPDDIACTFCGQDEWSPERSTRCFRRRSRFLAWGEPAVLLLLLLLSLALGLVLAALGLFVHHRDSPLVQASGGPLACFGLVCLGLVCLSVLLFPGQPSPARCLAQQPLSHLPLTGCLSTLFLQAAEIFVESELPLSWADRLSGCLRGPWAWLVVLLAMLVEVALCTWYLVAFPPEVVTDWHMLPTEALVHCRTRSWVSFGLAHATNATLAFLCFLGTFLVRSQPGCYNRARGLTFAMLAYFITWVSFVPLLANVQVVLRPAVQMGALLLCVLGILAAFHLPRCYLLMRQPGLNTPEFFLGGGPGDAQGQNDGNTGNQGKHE
Assay: Calcium mobilisation assay, TAS1R2-WT with TAS1R3 variant R247H
Type: cell-based
Details: maximal signal amplitude

molecule: C[C@H](CC[C@@H](O[C@@H]1O[C@H](CO[C@@H]2O[C@H](CO)[C@@H](O)[C@H](O)[C@H]2O)[C@@H](O)[C@H](O)[C@H]1O[C@@H]1O[C@H](CO)[C@@H](O)[C@H](O)[C@H]1O)C(C)(C)O)[C@H]1CC[C@@]2(C)[C@@H]3CC=C4[C@@H](CC[C@H](O[C@@H]5O[C@H](CO[C@@H]6O[C@H](CO)[C@@H](O)[C@H](O)[C@H]6O)[C@@H](O)[C@H](O)[C@H]5O)C4(C)C)[C@]3(C)[C@H](O)C[C@]12C [Mogroside V, mogroside V]
Max ΔF/F0: 1.12 ± 0.02

molecule: CC1=CC(=O)NS(=O)(=O)O1
Max ΔF/F0: 0.33 ± 0.01

molecule: OC[C@H]1O[C@H](O[C@]2(CCl)O[C@H](CCl)[C@@H](O)[C@@H]2O)[C@H](O)[C@@H](O)[C@H]1Cl
Max ΔF/F0: 0.69 ± 0.01

molecule: COC(=O)[C@H](Cc1ccccc1)NC(=O)[C@H](CC(=O)O)NCCC(C)(C)C
Max ΔF/F0: 0.71 ± 0.02

molecule: C=C(C)[C@@H]1CC=C(/C=N/O)CC1
Max ΔF/F0: 1.26 ± 0.15

---

# EC50 listing for each entry below
Biological target: human TAS1R2-S212G/TAS1R3-WT (Homo sapiens, UniProt Q7RTX0+Q8TE23, S212G)
Test: Calcium mobilisation assay, TAS1R2 variant S212G with TAS1R3-WT
Description: The coding sequences for TAS1R2 and TAS1R3 were commercially synthesised, and the human codon was optimised for expression in human cells. […] The HEK293T cells were kindly provided by Jay P. Slack (Givaudan Flavors Corporation; Cincinnati, OH, USA). […] The Ca^2+ changes were expressed as fractional changes in fluorescent light intensity: ΔF/F = (F − F0)/F0, where F was the fluorescent light intensity at each point, and F0 was the value of emitted fluorescent light prior to stimulus application. […]
measurementName: EC50 (µM)

compound: COc1ccc(CCC(=O)c2c(O)cc(O[C@@H]3O[C@H](CO)[C@@H](O)[C@H](O)[C@H]3O[C@@H]3O[C@@H](C)[C@H](O)[C@@H](O)[C@H]3O)cc2O)cc1O [NHDC, neohesperidin dihydrochalcone]
assayValue: 90.7
--
compound: O=S(=O)(O)NC1CCCCC1 [Cyclamate, cyclamate]
assayValue: 1770
--
compound: C=C1C[C@@]23CC[C@H]4[C@@](C)(CCC[C@@]4(C)C(=O)O[C@@H]4O[C@H](CO)[C@@H](O)[C@H](O[C@@H]5O[C@H](CO)[C@@H](O)[C@H](O)[C@H]5O)[C@H]4O[C@@H]4O[C@H](CO)[C@@H](O)[C@H](O)[C@H]4O)[C@@H]2CC[C@]1(O[C@@H]1O[C@H](CO)[C@@H](O)[C@H](O[C@@H]2O[C@H](CO)[C@@H](O)[C@H](O)[C@H]2O)[C@H]1O[C@@H]1O[C@H](CO)[C@@H](O)[C@H](O)[C@H]1O)C3 [Rebaudioside M, rebaudioside M]
assayValue: 23.2
--
compound: COC(=O)[C@H](Cc1ccccc1)NC(=O)[C@H](CC(=O)O)NCCC(C)(C)C
assayValue: 0.99
